Measured IC50, listed per entry.
- assayed.target: Itk (Homo sapiens, UniProt Q08881)
- Construct: Kinases are expressed as either kinase domains or full length constructs; made in house
- Sequence (Q08881 whole entry, species assumed, the tested form may be a part): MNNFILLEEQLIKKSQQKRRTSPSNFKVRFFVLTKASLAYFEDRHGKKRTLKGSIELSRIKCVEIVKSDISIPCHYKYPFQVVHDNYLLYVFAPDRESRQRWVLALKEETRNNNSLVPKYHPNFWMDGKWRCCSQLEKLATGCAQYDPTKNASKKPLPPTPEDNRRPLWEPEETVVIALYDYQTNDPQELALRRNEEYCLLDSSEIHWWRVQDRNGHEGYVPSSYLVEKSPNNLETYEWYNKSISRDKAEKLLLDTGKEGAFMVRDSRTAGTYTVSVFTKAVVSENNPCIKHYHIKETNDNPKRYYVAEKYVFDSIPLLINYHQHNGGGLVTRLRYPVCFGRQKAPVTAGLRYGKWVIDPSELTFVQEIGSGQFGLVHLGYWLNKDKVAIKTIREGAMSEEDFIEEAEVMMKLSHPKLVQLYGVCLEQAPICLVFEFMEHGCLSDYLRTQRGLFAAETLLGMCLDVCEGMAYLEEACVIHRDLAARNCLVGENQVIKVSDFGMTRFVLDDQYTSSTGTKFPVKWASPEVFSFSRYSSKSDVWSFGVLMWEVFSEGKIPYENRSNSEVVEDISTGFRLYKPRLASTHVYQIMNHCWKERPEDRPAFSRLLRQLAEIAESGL
- assay.overview: Kinase inhibition assay (33P transfer), Itk
- Assay type: biochemical
- condition.details: Table 3; read-out: Itk-1
observed.property: IC50

>>> data_value("CC(C)(C)OC(=O)NCCCNc1ncnc(-c2ccccc2)n1")
"> 13.7 µM"
>>> data_value("CC(C)(C)OC(=O)Nc1ccc(Nc2ncnc(-c3ccccc3)n2)cc1")
"> 12.4 µM"
>>> data_value("COc1cc(Nc2ncnc(N3CCN(c4ccccn4)CC3)n2)cc(OC)c1OC")
"> 10.6 µM"
>>> data_value("COc1cc(Nc2ncnc(-n3c(Nc4cccc(C(N)=O)c4)nc4ccccc43)n2)cc(OC)c1OC")
"6.83 to 8.78 µM"
>>> data_value("COc1cc(Nc2ncnc(Nc3ccc(C)c(NS(C)(=O)=O)c3)n2)cc(OC)c1OC")
"> 9.77 µM"
>>> data_value("COc1cc(Nc2ncnc(-n3c(N)nc4ccccc43)n2)cc(OC)c1OCCN1CCOCC1")
"0.812 to 4.87 µM"
>>> data_value("COc1cc(Nc2ncnc(-c3ccccc3)n2)cc(OC)c1")
"> 14.6 µM"
>>> data_value("COc1cc(Nc2ncnc(Nc3ccccn3)n2)cc(OC)c1OC")
"> 12.7 µM"
>>> data_value("O=c1[nH]c2ccccc2n1-c1ncnc(Nc2cccc(Cl)c2)n1")
"> 13.3 µM"
